Tested on: Myc
PROTOCOL_NOTES: Myc inhibition assay: Myc expression per cell by anti-Myc immunofluorescence, high-content imaging
Type: cell-based, human (patient-derived medulloblastoma xenograft cells)
DETAILS: Table 1; medulloblastoma PDX cells, 4 h; read-out: IC50 (Myc inhibition)
pIC50: −log10 of the molar value.
PROPERTY_MEASURED: pIC50

compound=O=S(=O)(Nc1ccccc1F)c1cccc(Nc2nccc(-c3ccc4[nH]cnc4c3)n2)c1 result="6.00 to 6.70"
compound=Oc1cc(-c2ccnc(Oc3ccccc3)n2)ccn1 result="4.00 to 5.00"
compound=O=C(O)c1cccc(Nc2nccc(-c3ccnc(O)c3)n2)c1 result="4.00 to 5.00"

query: Need pIC50, item `FC(F)(F)c1cccc(Nc2nccc(-c3ccc4nccn4c3)n2)c1`
result: 6.00 to 6.70

From: patent US20260356817A1
